Entry source: patent US12655116B2

tested on: STEME; assay: Pre-emergence herbicidal action against STEME; format: in vivo, Stellaria media; details: dosage 80 g/ha
measurement.kind: Pre-emergence action against STEME in % (%)

{"columns": ["smiles.structure", "subject.of.test", "measurement.kind", "recorded.result"],
 "data": [
  ["Cc1nnc(NC(=O)c2ccc(C(F)(F)F)c(C(=O)NC3CC3)c2Cl)o1", "STEME", "Pre-emergence action against STEME in %", 100],
  ["CCNC(=O)c1c(C(F)F)ccc(C(=O)Nc2nnnn2CC)c1SC", "STEME", "Pre-emergence action against STEME in %", 100],
  ["CCNC(=O)c1c(C(F)F)ccc(C(=O)Nc2nnnn2CC)c1C", "STEME", "Pre-emergence action against STEME in %", 100],
  ["CCCn1nnnc1NC(=O)c1ccc(S(C)(=O)=O)c(C(=O)NC2CC2)c1Cl", "STEME", "Pre-emergence action against STEME in %", 100],
  ["CCc1c(C(=O)Nc2nnc(C)o2)ccc(C(F)(F)F)c1C(=O)NC1CC1", "STEME", "Pre-emergence action against STEME in %", 90],
  ["CCn1nnnc1NC(=O)c1ccc(C(F)F)c(C(=O)NC)c1SC", "STEME", "Pre-emergence action against STEME in %", 100]
]}
